Molecular target: human adenosine A2A receptor (Homo sapiens)
Construct: expressed in transfected cells; host or cells: CHO cells, Semliki Forest virus expression system; membrane preparation
Sequence (P29274 whole entry): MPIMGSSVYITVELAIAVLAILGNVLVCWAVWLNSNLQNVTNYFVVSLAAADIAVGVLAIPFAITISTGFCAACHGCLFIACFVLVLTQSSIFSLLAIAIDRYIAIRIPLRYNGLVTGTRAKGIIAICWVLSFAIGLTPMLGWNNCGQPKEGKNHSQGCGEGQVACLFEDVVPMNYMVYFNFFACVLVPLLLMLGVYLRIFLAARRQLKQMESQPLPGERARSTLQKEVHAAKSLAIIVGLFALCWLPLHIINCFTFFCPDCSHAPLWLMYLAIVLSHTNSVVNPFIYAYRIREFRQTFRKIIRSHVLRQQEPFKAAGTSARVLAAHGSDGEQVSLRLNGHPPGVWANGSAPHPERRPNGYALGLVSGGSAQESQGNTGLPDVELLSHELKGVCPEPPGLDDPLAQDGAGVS
Experiment: Human adenosine A2A receptor [3H]-SCH-58261 binding assay
Conditions: affinity to human adenosine A2A receptor; read-out: Ki HA2A
The label is 1 (yes) for Ki below 0.1 µM and 0 (no) for Ki equal to or exceeding 0.1 µM.

COMPOUND	QUALITATIVE LABEL
CCN(CC)C(=O)c1cc(N)n2nc(-c3cc(Br)co3)nc2c1	0 (no)
Nc1cc(C(=O)N2CC=C(c3ccccc3)CC2)cc2nc(-c3ccc(Cl)o3)nn12	1 (yes)
Nc1cc(C(=O)NCc2ccccc2Cl)cc2nc(-c3ccccn3)nn12	1 (yes)
Nc1cc(C(=O)NC2CCc3ccccc32)cc2nc(-c3nccs3)nn12 (centres unmarked)	1 (yes)
